Target: T1, UNK ZnF1-6 (called full-length) (human, UniProt Q9C0B0 30-357)
T1 sequence: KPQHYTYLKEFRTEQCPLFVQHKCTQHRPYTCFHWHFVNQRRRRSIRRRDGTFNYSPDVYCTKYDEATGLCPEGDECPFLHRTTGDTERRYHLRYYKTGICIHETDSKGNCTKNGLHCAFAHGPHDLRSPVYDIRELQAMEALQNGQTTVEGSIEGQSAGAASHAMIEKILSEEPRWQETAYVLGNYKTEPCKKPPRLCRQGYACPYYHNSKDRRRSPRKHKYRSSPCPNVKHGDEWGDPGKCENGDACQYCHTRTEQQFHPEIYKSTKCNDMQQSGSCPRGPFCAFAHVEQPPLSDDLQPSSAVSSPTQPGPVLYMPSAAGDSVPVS
Assay: nsRBNS (natural sequence RNA bind-n-seq); RBNS binding buffer (assumed for nsRBNS): 25 mM Tris pH 7.5, 150 mM KCl, 3 mM MgCl2, 0.01% Triton X-100, 500 ug/ml BSA, 20 U/ml SUPERase-In, 4 C; UNK is unkempt and MSI1 is Musashi-1; names of the RNAs are library labels; protein concentration not given here; high values mean tight binding
Whole data set: some 5,800 sequences, median “enrichment r” near 0.68, cut for the highest 2% near 11. The list is a sample of the results.
assay-readout: binding signal (enrichment R)
Numbers only, in enrichment R.

The cases that follow already have their binding signal on record.
binder: chr5:173316791:173316892:-|3pUTR|ENSG00000113739|msi1|FALSE|unique (ssRNA) RNA: GGGAGUUCUACAGUCCGACGAUCGGAAACCUUAUACCCAGAGGAAAAUACACACCUGGGGAGUACAUUUGACAAAUUUCCCUUAGGAUUUCGUUAUCUCACCUUGACCCUCAGCCAAGAUUGGUAAAGCUGCGUCCUGGCGAUCAACAGAGGAUUGAGCAUCA
binding signal [enrichment R]: 0.601
//
binder: ENSG00000066084:stop:overlap|stop_codon|ENSG00000066084|stop_codon|NA|stop_codon (ssRNA) RNA: GGGAGUUCUACAGUCCGACGAUCACUGGCAGCCACACAUCUCACCUGCUGGGACAGAACCGGCAUACAUUGAGGGGAAACAAUAGUAAAUGUCUUAGACUUUAAGAAGGAUGCUGGGCUGUGGCACGGCAUGUUUGCGAAUGUCAACAGAGGAUUGAGCAUCA
binding signal [enrichment R]: 1.59

// below: binding signal requested for another binder
// query binding signal value for entry ENSG00000124766:be:win_3601|3pUTR|ENSG00000124766|bound_else_gene|NA|bound_elsewhere_windowed (ssRNA) RNA: GGGAGUUCUACAGUCCGACGAUCUGUACUGCGUUUUUCAUUCUUGUAUUUGACUAUUUAAUCCUUUCUACUUGUCGCUAAAUAUAAUUGUUUUAGUCUUAUGGCAUGAUGAUAGCAUAUGUGUUCAGGUUUAUAGCUGUUGUGCAACAGAGGAUUGAGCAUCA
0.795
